- TARGET UNDER TEST: TRPV1 receptor (Rattus norvegicus)
- Sequence (O35433 whole entry): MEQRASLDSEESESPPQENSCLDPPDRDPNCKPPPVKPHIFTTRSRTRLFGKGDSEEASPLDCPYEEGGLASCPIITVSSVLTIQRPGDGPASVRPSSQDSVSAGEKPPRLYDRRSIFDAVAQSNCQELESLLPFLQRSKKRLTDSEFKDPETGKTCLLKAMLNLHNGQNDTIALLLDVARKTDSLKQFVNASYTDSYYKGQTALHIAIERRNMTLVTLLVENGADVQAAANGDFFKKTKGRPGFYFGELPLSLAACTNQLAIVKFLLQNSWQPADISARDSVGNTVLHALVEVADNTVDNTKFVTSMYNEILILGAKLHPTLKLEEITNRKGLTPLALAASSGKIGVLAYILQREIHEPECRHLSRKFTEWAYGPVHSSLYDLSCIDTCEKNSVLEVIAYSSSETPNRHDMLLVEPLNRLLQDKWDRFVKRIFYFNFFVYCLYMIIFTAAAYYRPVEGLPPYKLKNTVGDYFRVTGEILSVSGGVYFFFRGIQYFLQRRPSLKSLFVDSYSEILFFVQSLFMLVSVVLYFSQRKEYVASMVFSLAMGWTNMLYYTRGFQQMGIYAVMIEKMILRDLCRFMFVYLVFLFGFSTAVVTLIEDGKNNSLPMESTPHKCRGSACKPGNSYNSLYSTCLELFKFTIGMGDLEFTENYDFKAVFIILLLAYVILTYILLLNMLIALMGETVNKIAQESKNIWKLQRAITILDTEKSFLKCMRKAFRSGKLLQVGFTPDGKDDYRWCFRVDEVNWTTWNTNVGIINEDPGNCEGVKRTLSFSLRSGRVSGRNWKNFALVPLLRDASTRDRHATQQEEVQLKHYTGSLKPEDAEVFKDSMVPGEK
- METHOD DESCRIPTION: TRPV1 modulation in DRG neurones: CGRP release in absence and presence of capsaicin (Assay 2)
- Type: cell-based
- Design: The culture used for this experiment contained sensory neurones, Schwann cells and fibroblasts; endogenous in cells; host or cells: primary rat DRG sensory neurone culture (with Schwann cells and fibroblasts)
- CONDITION: 20 min; 30 μM with capsaicin 1 μM; −ve: inhibition, +ve: potentiation of capsaicin response; read-out: Effect of test compounds on capsaicin (1 μM)-induced CGRP release (%)
Please enter yes where inhibition at 30 µM is greater than or equal to -20%, and no where it is lower.

Example entries and their recorded answers appear below.
COMPOUND | ASSIGNED CATEGORY
COc1ccc(C(=O)C(C)C(=O)CCc2ccc(O)c(OC)c2)cc1 (stereo not shown) [Compound 17] | no
COc1cc(CCC(=O)CC(=O)C2(C)CC2)ccc1O [Compound 6] | yes
COc1cc(CCC(=O)CC(=O)C(C)(C)C)ccc1O [Compound 2] | yes
COc1cc(CCC(=O)C(C)C(=O)c2ccc(C)cc2)ccc1O (stereo not shown) [Compound 14] | yes
COc1cc(CCC(=O)CC(=O)c2ccccc2)ccc1O [Compound 69] | yes
CCC(C(=O)CCc1ccc(O)c(OC)c1)C(=O)c1ccccc1 (stereo not shown) [Compound 12] | yes
COc1cc(CCC(=O)CC(=O)c2ccc(C)cc2)ccc1O [Compound 80] | no
COc1cc(CCC(=O)CC(=O)Cc2cccc3ccccc23)ccc1O [Compound 29] | no

Inquiry: Is reported inhibition at 30 µM greater than or equal to -20% here: COc1cc(CCC(=O)CC(=O)c2cccc3ccccc23)ccc1O [Compound 27]
Reply text: no

Inquiry: Does inhibition at 30 µM meet or surpass -20% for COc1cc(CCC(=O)CC(=O)Cc2ccccc2)ccc1O [Compound 28] ?
Reply text: no

Inquiry: API: above_or_equal(metric=inhibition at 30 µM, cutoff=-20%) for item COc1cc(CCC(=O)CC(=O)c2ccccc2-c2ccccc2)ccc1O [Compound 19]
Reply text: no

Inquiry: # check: inhibition at 30 µM of COc1cc(CCC(=O)CC(=O)c2ccc(F)cc2)ccc1O [Compound 20] is greater than or equal to -20%
Reply text: yes

Inquiry: Hi team, for COc1cc(CCC(=O)CC(=O)c2ccc(C#N)cc2)ccc1O [Compound 82] , is the recorded inhibition at 30 µM at or above -20%?
Reply text: yes

Inquiry: Could you tell me if the measured inhibition at 30 µM of COc1cc(CCC(=O)CC(=O)c2ccccc2C)ccc1O [Compound 84] reaches -20% or more?
Reply text: yes

Inquiry: hey, is inhibition at 30 µM for this one >= -20%? COc1cc(CCC(=O)C(C)(C)C(=O)C(C)(C)C)ccc1O [Compound 71]
Reply text: yes

Inquiry: Could you tell me if the measured inhibition at 30 µM of COc1cc(CCC(=O)CC(=O)c2ccc(Cl)cc2C)ccc1O [Compound 76] reaches -20% or more?
Reply text: yes

---

- Test system: IL-1α-induced PGE2 release
- METHOD DESCRIPTION: IL-1α-induced PGE2 release in human diploid lung fibroblasts (WI-38) (Assay 5)
- Assay type: cell-based
- CONDITION: 3 μM; WI-38 cells, IL-1α 1 nM, overnight
Listing of recorded Inhibition of IL-1α-induced PGE2 release (%) by entry.
Write the value in % as a bare number.

Inquiry: For the record COc1cc(CCC(=O)CC(=O)c2ccc(Cl)cc2Cl)ccc1O , what value of Inhibition of IL-1α-induced PGE2 release (%) is listed for IL-1α-induced PGE2 release?
Reply text: 93

Inquiry: Give IL-1α-induced PGE2 release Inhibition of IL-1α-induced PGE2 release (%) for CCC(=O)CC(=O)CCc1ccc(O)c(OC)c1 [3-gingerdione, reference compound]
Reply text: 61

Inquiry: # query: Inhibition of IL-1α-induced PGE2 release (%) | item COc1cc(CCC(=O)CC(=O)C(C)C)ccc1O | system: IL-1α-induced PGE2 release
Reply text: 68

Inquiry: Give IL-1α-induced PGE2 release Inhibition of IL-1α-induced PGE2 release (%) for COc1cc(CCC(=O)CC(=O)c2ccc(Cl)c(Cl)c2)ccc1O
Reply text: 84
